# ASSAY SYSTEM: KiSS-1 receptor (Rattus norvegicus, UniProt Q924U1)
# Sequence (Q924U1 whole entry): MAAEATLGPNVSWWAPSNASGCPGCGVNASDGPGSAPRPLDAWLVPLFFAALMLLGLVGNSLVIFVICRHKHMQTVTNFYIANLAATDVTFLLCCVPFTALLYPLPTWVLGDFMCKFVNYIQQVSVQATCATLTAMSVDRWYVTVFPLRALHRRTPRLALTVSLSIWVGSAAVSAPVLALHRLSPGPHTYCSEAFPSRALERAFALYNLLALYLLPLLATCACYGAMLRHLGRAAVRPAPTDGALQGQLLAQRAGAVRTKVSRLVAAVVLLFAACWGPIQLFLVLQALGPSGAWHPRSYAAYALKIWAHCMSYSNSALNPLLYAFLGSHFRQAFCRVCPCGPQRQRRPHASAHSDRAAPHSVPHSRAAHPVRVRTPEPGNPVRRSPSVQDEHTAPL
# METHOD DESCRIPTION: Agonist activity at rat KISS1R expressed in CHO/dhfr cells assessed as increase in intracellular Ca2+ levels measured for 180 secs by Fluo 3-AM dye based FLIPR assay
# Type: functional, cell-based
Where a SMILES comes first, the peptide text is derived from it. [ ]: non-standard residue; d: D form. Phe(3-F) = N[C@@H](Cc1cccc(F)c1)C(=O)O; Arg(Me) = CNC(=N)NCCC[C@H](N)C(=O)O; azaGly = NNC(=O)O; βAla = NCCC(=O)O
Catalogue of pEC50 values
Just the number, please; pEC50 means minus log10 of the concentration in mol/L.

| MOLECULE | pEC50 |
| --- | --- |
| CNC(=N)NCCC[C@H](NC(=O)[C@H](CC(C)C)NC(=O)NNC(=O)[C@H](Cc1ccccc1)NC(=O)[C@@H](NC(=O)[C@H](CC(N)=O)NC(=O)CCNC(=O)[C@@H](Cc1ccc(O)cc1)NC(C)=O)[C@@H](C)O)C(=O)N[C@@H](Cc1c[nH]c2ccccc12)C(N)=O (Ac-[dY][βAla]NTF[azaGly]L[Arg(Me)]W-NH2) | 7.96 |

Kindly note the recorded pEC50 for CNC(=N)NCCC[C@H](NC(=O)[C@H](CC(C)C)NC(=O)NNC(=O)[C@H](Cc1cccc(F)c1)NC(=O)[C@@H](NC(=O)[C@H](CC(N)=O)NC(=O)[C@H](Cc1c[nH]c2ccccc12)NC(=O)[C@@H](Cc1ccc(O)cc1)NC(C)=O)[C@@H](C)O)C(=O)N[C@@H](Cc1c[nH]c2ccccc12)C(N)=O (Ac-[dY]WNT[Phe(3-F)][azaGly]L[Arg(Me)]W-NH2) , which is 8.92
